Record set of IC50 for target or system Acetylcholinesterase (Homo sapiens).
Please answer in the form of a number followed by its unit of measurement.

See these solved cases before continuing.
CNc1ccc(/C=C2\Cc3cc(OC)c(OCCN4CCCCC4)cc3C2=O)cc1 = 301 nM
CCN(CC)c1ccc(/C=C2\Cc3cc(OC)c(OCCN4CCCCC4)cc3C2=O)cc1 = 536 nM
CCCN(CCC)c1ccc(/C=C2\Cc3cc(OC)c(OCCN4CCCCC4)cc3C2=O)cc1 = 954 nM
CCN(C)c1ccc(/C=C2\Cc3cc(OC)c(OCCN4CCCCC4)cc3C2=O)cc1 = 426 nM
CCCN(C)c1ccc(/C=C2\Cc3cc(OC)c(OCCN4CCCCC4)cc3C2=O)cc1 = 390 nM

Next, consider the following compound.
For COc1cc2c(cc1OCCN1CCCCC1)C(=O)/C(=C/c1ccc(N(C)C)cc1)C2 the compound record lists IC50 as 285 nM

###

# inhibition listing for each entry below
Biological target: Amyloid-beta precursor protein (Homo sapiens)
Test: Inhibition of amyloid beta (1-42) self-mediated aggregation (unknown origin) at 20 uM after 48 hrs by thioflavin T fluorescence method

# annotated cases, reported inhibition shown
CCN(CC)c1ccc(/C=C2\Cc3cc(OC)c(OCCN4CCCCC4)cc3C2=O)cc1 = 85.5%
CCCN(C)c1ccc(/C=C2\Cc3cc(OC)c(OCCN4CCCCC4)cc3C2=O)cc1 = 83.8%
COc1cc2c(cc1OCCNC1CCCCC1)C(=O)/C(=C/c1ccc(N(C)C)cc1)C2 = 84.3%

// recorded inhibition for CCN(C)c1ccc(/C=C2\Cc3cc(OC)c(OCCN4CCCCC4)cc3C2=O)cc1 : 85.2%

###

Target: Acetylcholinesterase (Electrophorus electricus, UniProt O42275)
Sequence (O42275 whole entry): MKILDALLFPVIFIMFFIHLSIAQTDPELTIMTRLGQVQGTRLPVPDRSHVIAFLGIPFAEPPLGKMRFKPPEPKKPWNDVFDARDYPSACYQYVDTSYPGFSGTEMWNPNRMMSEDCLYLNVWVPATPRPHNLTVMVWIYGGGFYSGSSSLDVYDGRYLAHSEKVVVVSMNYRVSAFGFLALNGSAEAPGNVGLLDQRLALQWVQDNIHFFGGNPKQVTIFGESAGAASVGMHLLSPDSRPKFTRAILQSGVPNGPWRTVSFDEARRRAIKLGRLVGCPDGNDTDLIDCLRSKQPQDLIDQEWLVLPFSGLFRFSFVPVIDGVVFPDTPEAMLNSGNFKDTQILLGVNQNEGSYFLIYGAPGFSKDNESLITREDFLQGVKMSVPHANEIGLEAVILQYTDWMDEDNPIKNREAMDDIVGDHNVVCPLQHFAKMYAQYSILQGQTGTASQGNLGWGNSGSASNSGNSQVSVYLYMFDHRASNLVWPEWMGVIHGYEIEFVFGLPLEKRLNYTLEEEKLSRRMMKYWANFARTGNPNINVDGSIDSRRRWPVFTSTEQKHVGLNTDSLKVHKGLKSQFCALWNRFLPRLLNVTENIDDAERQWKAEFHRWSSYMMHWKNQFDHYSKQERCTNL
Listed next: entries and their corresponding IC50.
Form entry: value (nM) — number only.

Worked cases, IC50 given:
CCN(C)c1ccc(/C=C2\Cc3cc(OC)c(OCCN4CCCCC4)cc3C2=O)cc1 = 25.5
COc1cc2c(cc1OCCCCNC1CCCCC1)C(=O)/C(=C/c1ccc(N(C)C)cc1)C2 = 9180

COc1cc2c(cc1OCCCCCN1CCCCC1)C(=O)/C(=C/c1ccc(N(C)C)cc1)C2 yielded IC50 of 1030

###

// each record: one item and its pIC50 for Butyrylcholinesterase (Equus caballus, UniProt Q9N1N9)
Remember the convention: pIC50 equals -log10 of concentration in molar.

// compound COc1cc2c(cc1OCCCN1CCCCC1)C(=O)/C(=C/c1ccc(N(C)C)cc1)C2 , assay Butyrylcholinesterase (Equus caballus, UniProt Q9N1N9), pIC50 value: 5.84

###

Target: Acetylcholinesterase (Electrophorus electricus)
We label by threshold. Values of IC50 strictly beneath 20 nM are class 1. Values of 20 nM and up are class 0.

Reference set (4 entries):
CCCN(C)c1ccc(/C=C2\Cc3cc(OC)c(OCCN4CCCCC4)cc3C2=O)cc1 = class 1
CNc1ccc(/C=C2\Cc3cc(OC)c(OCCN4CCCCC4)cc3C2=O)cc1 = class 1
COc1ccc(/C=C2\Cc3cc(OC)c(OCCN4CCCCC4)cc3C2=O)cc1 = class 1
COc1cc2c(cc1OCCN1CCCCC1)C(=O)/C(=C/c1ccc(N(C)C)cc1)C2 = class 1

Next up:
Q: I'd appreciate it if you could check whether CCN(CC)c1ccc(/C=C2\Cc3cc(OC)c(OCCCCCN4CCCCC4)cc3C2=O)cc1 has IC50 smaller than 20 nM.
A: class 0
